# System: SN12C renal
# Test method notes: NCI-60 one-dose screen, 48 h
# Measurement parameters: 10 µM unless noted
About 83,000 compounds went through this panel and 20% of them were active in at least one assay; those are over-represented in the sample as a whole. Active and inactive are the calls of the source. The calls were made as follows: active = growth percent below 10; inactive = the rest.
Outcomes: active, inactive

[
  {
    "Compound": "CCNCCNc1cc(-c2cccc(C(F)(F)F)c2)c(C#N)c2nc3ccccc3n12",
    "Label": "active"
  },
  {
    "Compound": "O=c1cc(-c2ccc(OCc3ccccc3)cc2)oc2c(I)c(OCc3ccccc3)cc(OCc3ccccc3)c12",
    "Label": "inactive"
  },
  {
    "Compound": "Fc1ccc(Nc2ccc3cc(OCCCN4CCOCC4)ccc3n2)cc1F",
    "Label": "inactive"
  },
  {
    "Compound": "CN1CCN(C2=C(Cl)C(=O)c3ccccc3C2=O)CC1",
    "Label": "inactive"
  },
  {
    "Compound": "O=[N+]([O-])c1ccc(-c2cc3c(Nc4ccc(OCc5cccc(Cl)c5)c(Cl)c4)ncnc3s2)cc1",
    "Label": "inactive"
  }
]

Data origin: PubChem BioAssay (NCI)
